- system.under.test: Endoribonuclease Dicer (Homo sapiens)
- measurement.notes: Dicer cleavage of pre-miR-21 blockers – biochemical, cat-ELCCA, chemiluminescence, primary screen (AID 1347074);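 further: plate controls were vehicle for no effect and no enzyme for full effect; higher signal means more uncleaved substrate so more Dicer inhibition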
- measurement.parameters: cat-ELCCA pre-miR-21 Dicer processing, at 25 µM, stronger effect = higher value
Among all 47,000 compounds or so, about 2,800 (6%) were called active. Many of the other results were omitted from the sample, so actives are more common in it than they were.
Category key, based on recorded z-score: bucket 1 (below 0.2), bucket 2 (0.2 to below 2), bucket 3 (2 or more)

Worked examples follow.
> print(dat)
                                   molecule     group
1        CCOC(=O)/C(=N\Nc1ccccc1)c1csc(N)n1  bucket 1
2  Cc1ccc(N2CC(=O)N(/N=C/c3ccc4c(c3)OCO4)CC2=O)cc1  bucket 3
3  C#CC1(NS(=O)(=O)c2ccc(Sc3ccccc3)c([N+](=O)[O-])c2)CCCCC1  bucket 1
4  O=C1c2ccccc2C(=O)N1CN1CCC(CCCC2CCN(CN3C(=O)c4ccccc4C3=O)CC2)CC1  bucket 3

q: Sort `CCc1ccc(C(=O)/C=C/Sc2nc3ccccc3o2)cc1` into one of the categories.
a: bucket 2

q: Sort `COc1ccc(OCCn2cc(C(=O)C3CC3)c3ccccc32)cc1` into one of the categories.
a: bucket 3

q: Sort `O=c1c2c(-c3ccc(Cl)cc3)csc2nc2c3ccccc3c(N3CCN(CCO)CC3)nn12` into one of the categories.
a: bucket 1

q: Sort `C=CCOc1ccc2c(=O)c(Oc3cc(C)ccc3C)coc2c1` into one of the categories.
a: bucket 2

q: Sort `Cc1nc(N/N=C2\CCCc3ccccc32)sc1C` into one of the categories.
a: bucket 2

q: Sort `Cc1cc(C)c(C#N)c(Sc2ccc(Cl)cc2)n1` into one of the categories.
a: bucket 1

q: Sort `Cc1cc(C)c2c(n1)sc1c(=O)n(/N=C/c3ccc4c(c3)OCO4)c(C)nc12` into one of the categories.
a: bucket 1

q: Sort `O=C(NCc1ccccc1)c1cc2sccc2s1` into one of the categories.
a: bucket 3

q: Sort `O=[N+]([O-])c1cc(-c2cnc3ccccc3n2)ccc1Sc1ccccn1` into one of the categories.
a: bucket 3

q: Sort `COC(=O)c1sccc1NNS(=O)(=O)c1ccc(C)cc1` into one of the categories.
a: bucket 2

q: Sort CSc1ccc(C2C(C(=O)OCC3CCCO3)=C(C)NC3=C2C(=O)CC(C)(C)C3)cc1 (stereo unspecified) into one of the categories.
a: bucket 2
